// provenance: patent US20030077826A1

- MEASURED_TARGET: T1, adenine nucleotide translocator (ANT), purified from rat heart mitochondria (rat), Q05962
- T1 chain: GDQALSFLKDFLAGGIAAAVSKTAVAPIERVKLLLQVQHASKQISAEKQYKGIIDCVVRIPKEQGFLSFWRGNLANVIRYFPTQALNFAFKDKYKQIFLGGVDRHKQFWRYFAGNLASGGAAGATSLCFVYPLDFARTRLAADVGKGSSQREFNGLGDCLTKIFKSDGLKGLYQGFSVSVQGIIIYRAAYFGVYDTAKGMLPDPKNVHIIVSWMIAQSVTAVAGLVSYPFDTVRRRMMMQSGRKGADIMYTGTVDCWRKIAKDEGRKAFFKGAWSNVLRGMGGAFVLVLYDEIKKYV
Ends that are not written are not given here.
MEASUREMENT_LABEL: Kd (pM)
Give a bare numeral; the unit pM is implied.

Find the measured Kd of DTWTGVEALIRILQQLLFIHFRIGCRHSRIGIIQQRRTRNGASKS (not fully specified (N-terminus)) [Tox0 (Biotin-Vpr52-96)] and report it.
150
